Tested on: Staphylococcus aureus MW2 delta-mecA (mecA-)
Test: normalized GFP fluorescence (growth of mecA- strain) (fraction of control range); higher = more growth of mecA- strain
Details: compound concentration: 150 uM; cefoxitin: subinhibitory; fluorescent label: GFP
Structures can show the parent of a compound that is named as a salt.
Property: normalized GFP fluorescence
Please respond with just the number, no unit label.

### Prompt # get_value(readout='normalized GFP fluorescence', item= "COc1nc(N)nc2c1ncn2[C@@H]1O[C@H](CO)[C@@H](O)[C@@H]1O" )
### Response 0.298

### Prompt // lookup normalized GFP fluorescence for CC(C)[C@H](N)C(=O)OCCOCn1cnc2c(=O)nc(N)[nH]c21 [Valaciclovir HCl]
### Response 0.302

### Prompt Which value of normalized GFP fluorescence has been reported for "CC1=C(C(=O)O)N2C(=O)[C@@H](NC(=O)[C@H](N)c3ccc(O)cc3)[C@H]2SC1" in the records?
### Response 0.0167

### Prompt Dear colleague, I am looking for the recorded normalized GFP fluorescence of the following compound: CCC(C)(C)c1ccc(CC(C)CN2C[C@@H](C)O[C@@H](C)C2)cc1 (stereo partly drawn)
### Response 0.099

### Prompt Using the record for "COC(=O)[C@@H]1CC2=CC(=O)CC[C@]2(C)[C@@]23O[C@@H]2C[C@@]2(C)[C@@H](CC[C@@]24CCC(=O)O4)[C@H]13" , report its normalized GFP fluorescence.
### Response 0.583

### Prompt State the recorded normalized GFP fluorescence for this entry: "COc1ccc2c(c1)c(CC(=O)O)c(C)n2C(=O)c1ccc(Cl)cc1"
### Response -0.013

### Prompt Entry under review: CCCNC(C)C(=O)Nc1c(C)csc1C(=O)OC (stereo not drawn) [Articaine HCl] . Reported normalized GFP fluorescence?
### Response 0.567

### Prompt Query (compound): "CC(C)c1nc(N(C)S(C)(=O)=O)nc(-c2ccc(F)cc2)c1/C=C/[C@@H](O)C[C@@H](O)CC(=O)O" ; field requested: normalized GFP fluorescence
### Response 0.207

### Prompt Which value of normalized GFP fluorescence has been reported for CC(O)C(=O)O.N (stereo not drawn) in the records?
### Response 0.217

### Prompt normalized GFP fluorescence lookup needed for CCC1(c2ccccc2)NC(=O)N(C)C1=O (stereo not drawn) , thanks.
### Response 0.794

### Prompt Which normalized GFP fluorescence value belongs to "CC[C@@]1(O)C(=O)OCc2c1cc1n(c2=O)Cc2cc3c(CN(C)C)c(O)ccc3nc2-1" ?
### Response 0.791

### Prompt What does the record list as normalized GFP fluorescence for "CN(C)CCN(Cc1cccs1)c1ccccn1" ?
### Response 0.185

### Prompt Give its normalized GFP fluorescence value. Item: "CCCN(CCC)S(=O)(=O)c1ccc(C(=O)O)cc1"
### Response 0.462

====

Test system: Staphylococcus aureus MW2 (mecA+)
Assay: normalized DsRed fluorescence (growth of mecA+ strain) (fraction of control range); higher = more growth of mecA+ strain
Conditions: compound concentration: 150 uM; cefoxitin: subinhibitory; fluorescent label: DsRed
Answer Condition not met if normalized DsRed fluorescence is under 0.8, and Condition met if it is 0.8 or more.

### Prompt Please indicate if the recorded normalized DsRed fluorescence for "OC[C@H]1O[C@@H](c2ccc(Cl)c(Cc3ccc(O[C@H]4CCOC4)cc3)c2)[C@H](O)[C@@H](O)[C@@H]1O" meets or exceeds 0.8.
### Response Condition not met

### Prompt Hi, just wondering whether C[C@H](Cc1cc2c(c(C(N)=O)c1)N(CCCO)CC2)NCCOc1ccccc1OCC(F)(F)F [Silodosin (Rapaflo)] shows normalized DsRed fluorescence of 0.8 or higher.
### Response Condition met

### Prompt Exam item: decide whether the reported normalized DsRed fluorescence for CC(CCc1ccccc1)NCC(O)c1ccc(O)c(C(N)=O)c1 (stereo not given) is at least 0.8.
### Response Condition not met

### Prompt Please indicate if the recorded normalized DsRed fluorescence for "NC(=O)c1ncn([C@@H]2O[C@H](CO)[C@@H](O)[C@H]2O)c1N" meets or exceeds 0.8.
### Response Condition not met

### Prompt Test whether the compound "COC(=O)C1=C(C)NC(C)=C(C(=O)OC)C1c1ccccc1[N+](=O)[O-]" records normalized DsRed fluorescence of 0.8 or higher.
### Response Condition met
